Overview of recorded pIC50 for various compounds
target.of.assay: human recombinant COX2 (hCOX2) (UniProt P35354)
test.protocol: LCMS-based COX2 enzymatic inhibition assay (PGE2 quantification)
Type: biochemical
Design: COX2 2 minutes pge2/pge2d4 area ratio Avg; other: 2 minutes; readout pge2/pge2d4 area ratio; average; COX2 2 minutes pge2/pge2d4 area ratio Avg; LLE; average LLE; COX2 2 minutes pge2 area (counts) Avg; readout pge2 area (counts); other: 2 min; "ovine COX2 (oCOX2), human recombinant COX2 (hCOX2)"
condition.info: 10 minutes; readout pge2 area (counts); average; read-out: COX2 10 minutes pge2 area (counts) Avg. IC50
pIC50: −log10 of the molar value.
attribute.measured: pIC50

[[record]]
structure = "CS(=O)(=O)c1ccc(-c2cncc(N3CCOCC3)n2)cc1"
attribute_measured = "pIC50"
measured_value = 6.01

[[record]]
structure = "CS(=O)(=O)c1ccc(-c2cncc(NCc3ccccc3)n2)cc1"
attribute_measured = "pIC50"
measured_value = 8.16

[[record]]
structure = "CS(=O)(=O)c1ccc(-c2cncc(NCc3cccs3)n2)cn1"
attribute_measured = "pIC50"
measured_value = 7.65

